All values here come from patent US4792555A.

- TARGET: human platelet PLA2 (Homo sapiens)
METRIC_NAME: IC50 (µM)
Please give a number only; it is taken to be in µM.

Lookup: Give recorded IC50 with human platelet PLA2 (Homo sapiens) for the following compound: COc1ccc2c(c1)c(CC(=O)O)c(C)n2C(=O)c1ccc(Cl)cc1 [Indomethacin, reference compound]
Found: 48

====

- TARGET: human platelet PLA2 (Homo sapiens, UniProt P14555)
- METHOD_SUMMARY: Inhibition of human platelet PLA2 (hydrolysis of [1-14C]oleic acid labelled E. coli membrane phospholipids) in vitro
- Format: biochemical
- APPLIED_CONDITIONS: pH 7.4, read-out: % Inhibition of PLA2
Counter-ions that a name gives are not always drawn.
METRIC_NAME: inhibition at 100 µM (%)
Please give a number only; it is taken to be in %.

Lookup: Any idea what inhibition at 100 µM was measured for CCCC[C@H](N)C(=O)N1CCC(C)CC(C)(C)C1 (stereo partly shown) [Example 2b, hydrochloride] ?
Found: 25

Lookup: Any idea what inhibition at 100 µM was measured for CCCCC(N)C(=O)NC1CCCCCCCCCCC1.Cl (stereo not shown) [Example 2a, hydrochloride] ?
Found: 76

Lookup: Any idea what inhibition at 100 µM was measured for CCCCCCCCCCCCCCCCNC(=O)C(N)CCCC.Cl (stereo not shown) [Example 1, hydrochloride] ?
Found: 99

Lookup: Any idea what inhibition at 100 µM was measured for N[C@@H](CC(=O)OCc1ccccc1)C(=O)NC1CCCCCCCCCCC1 [Example 7, hydrochloride] ?
Found: 60

Lookup: Any idea what inhibition at 100 µM was measured for O=C(NC1CCCCCCCCCCC1)C1CCCCN1 (stereo not shown) [Example 5d, hydrochloride] ?
Found: 45

Lookup: Any idea what inhibition at 100 µM was measured for N[C@@H](Cc1c[nH]c2ccccc12)C(=O)NC1CCCCCCCCCCC1 [Example 6, hydrochloride] ?
Found: 52

Lookup: Any idea what inhibition at 100 µM was measured for O=C(NC1CCCCCCCCCCC1)C1CCCN1 (stereo not shown) [Example 5c, hydrochloride] ?
Found: 58

====

- TARGET: human platelet PLA2 (Homo sapiens)
- Sequence (P14555 21-144): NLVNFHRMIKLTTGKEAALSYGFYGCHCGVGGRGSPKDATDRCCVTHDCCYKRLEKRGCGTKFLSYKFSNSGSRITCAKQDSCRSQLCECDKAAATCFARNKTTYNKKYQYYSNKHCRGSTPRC
- METHOD_SUMMARY: Inhibition of human platelet PLA2 (hydrolysis of [1-14C]oleic acid labelled E. coli membrane phospholipids) in vitro
- Format: biochemical
- APPLIED_CONDITIONS: at 100 μM; human platelet PLA2, 30 minutes, pH 7.4; read-out: % Inhibition of PLA2
Where a name gives a salt, the structure may show the parent alone.
I would appreciate it if you labelled entries TRUE when inhibition at 100 µM is 60% or higher, otherwise FALSE.

In [3]: df
Out[3]:
                                   compound  category
0  O=C(C1CCCCN1)N1CCC2CCCCC2C1 (stereo not drawn) [Example 5f, hydrochloride]     FALSE
1  CCCCC(NC(=O)Cc1ccc(-c2ccccc2)cc1)C(=O)N1CC(C)NC(C)C1 (stereo not drawn)     FALSE
2  CCCC[C@H](NC(=O)CCCCCCc1ccccc1)C(=O)N1CC(C)NC(C)C1 (stereo partly drawn)      TRUE
3  CCCC[C@H](N)C(=O)N1CCC2CCCCC2C1 (stereo partly drawn) [Example 2c, hydrochloride hemihydrate]     FALSE
4  CCCCCCCCCCCCCCCCNC(=O)[C@@H]1CCCN1 [Example 5a, N-(S)-Hexadecyl-2-pyrrolidinecarboxamide]      TRUE

Now look at this entry.
Lookup: Could you tell me if the measured inhibition at 100 µM of CCCCCCCCCCCCCCCCNC(=O)[C@H]1CCCN1 [Example 5b, N-(R)-Hexadecyl-2-pyrrolidinecarboxamide] reaches 60% or more?
Found: TRUE
